Attribution: patent US6147076A

tested on: DC-3F hamster lung cells; conditions: dc-3f cells
Observation Type: IC80 (µM)
Numbers only, in µM.

# Molecule, Measured Result
data = [
    ("C=CC(C)(C)C12CC3c4nc5ccccc5c(=O)n4C(C)C(=O)N3C1Nc1ccccc12 (centres unmarked)", 10.2),
]

Asked: Which IC80 value is on record for C=CCC12CC3c4nc5ccccc5c(=O)n4C(C)C(=O)N3C1N(C(C)=O)c1ccccc12 (centres unmarked) ?
Given back: 17.4

###

test system: DC-3F/ADII cells; conditions: dc-3f/adii cells
Observation Type: IC50 (nM)
Numbers only, in nM.

# Compound, Assay Target, Unit Label, Measured Result
measured = [
    ("C=CCC12CC3c4nc5ccccc5c(=O)n4C(C)C(=O)N3C1N(C(C)=O)c1ccccc12 (centres unmarked)", "DC-3F/ADII cells", "nM", 5210),
]

Now take the following compound into account.
Asked: Provide value of IC50 for this record tested with DC-3F/ADII cells: COc1cc(NS(C)(=O)=O)ccc1Nc1c2ccccc2nc2ccccc12 [M-AMSA, reference compound]
Given back: 32

###

tested on: CCRF-CEM cells; test: Intracellular accumulation of [3H]vinblastine in CCRF-CEM cells; type: cell-based, human; settings: 30 μM, without wash
Observation Type: [3H]vinblastine accumulation (fmole/10^3 cells)
Give bare numbers, in fmole/10^3 cells.

// below: answered compounds
# Compound, [3H]vinblastine accumulation [fmole/10^3 cells]
measured = [
    ("C=CC(C)(C)C12CC3C(=O)N(C(C)=O)C(C)C(=O)N3C1N(C(C)=O)c1ccccc12 (centres unmarked) [Imide Di-Ac-DKP Amide 14(D), imide diacetate diketopiperazine]", 34.54),
    ("C=CC(C)(C)C12CC3c4nc5ccccc5c(=O)n4CC(=O)N3C1N(C(C)=O)c1ccccc12 (centres unmarked)", 33.13),
]

Please give [3H]vinblastine accumulation for each item listed below.
1. C=CCC12CC3c4nc5ccccc5c(=O)n4C(C)C(=O)N3C1N(C(C)=O)c1ccccc12 (centres unmarked)
2. C=CC(C)(C)C12CC3C(=O)NC(C)C(=O)N3C1Nc1ccccc12 (centres unmarked)

Given back:
1. 33.35
2. 35.84

Please give [3H]vinblastine accumulation for each item listed below.
1. C=CC(C)(C)C12CC3c4nc5ccccc5c(=O)n4C(C)C(=O)N3C1N(C(=O)C(F)(F)F)c1ccccc12 (centres unmarked)
2. C=CC(C)(C)C12CC3C(=O)NC(C)C(=O)N3C1N(C(=O)C(F)(F)F)c1ccccc12 (centres unmarked) [5N-F3 -Ac-DKP 14F(E), 5N-trifluoroacetyl diketopiperazine]

Given back:
1: 34.01; 2: 33.34

Please give [3H]vinblastine accumulation for each item listed below.
1. C=CC(C)(C)C12CC3c4nc5ccccc5c(=O)n4C(C)C(=O)N3C1N(C(C)=O)c1ccccc12 (centres unmarked)
2. C=CC(C)(C)C12CC3C(=O)N(C(C)=O)C(C)C(=O)N3C1Nc1ccccc12 (centres unmarked) [Imide-Ac-DKP 14(A), imide acetate diketopiperazine]
3. C=CC(C)(C)C12CC3C(=O)NC(C)C(=O)N3C1N(C(C)=O)c1ccccc12 (centres unmarked) [5N-Ac-DKP 14(E), N-acetyldiketopiperazine]

Given back:
[37.45, 34.87, 35.08]

Please give [3H]vinblastine accumulation for each item listed below.
1. C=CC(C)(C)C12CC3C(=O)N(C(=O)OC(C)(C)C)C(C)C(=O)N3C1Nc1ccccc12 (centres unmarked) [Imide-BOC-DKP 14(C), imide-BOC diketopiperazine]
2. C=CC(C)(C)C12CC3c4nc5ccccc5c(=O)n4C(C)C(=O)N3C1Nc1ccccc12 (centres unmarked)

Given back:
[35.56, 34.68]
